Values from PubChem BioAssay AID1963850

Tested on: 192522-019-R-J2-PDC complex tumor spheroid viability;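 note: spheroids exposed to drugs for seven days before reading; 100% = DMSO vehicle control viability in luminescence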
Experiment: Anticancer human tumor 192522-019-R-J2-PDC patient-derived colon adenocarcinoma cell line growth inhibition [POLQ]
Settings: second compound 3.16 µM; first compound 0.01 µM; stronger effect = lower value
MEASURE_NAME: viability, T/C (%)
Kindly provide the numeric value in % only, without the unit symbol.

Solved entries (count: 10):
# MOLECULE, viability, T/C (%)
rows = [
    ("Cn1ncnc1[C@H]1c2n[nH]c(=O)c3cc(F)cc(c23)N[C@@H]1c1ccc(F)cc1 + Nc1ccc(C#CCN(C(=O)Cc2ncc(C(F)(F)F)cc2C(F)(F)F)c2ccc(F)cc2)nn1", 106),
    ("Cn1ncnc1[C@H]1c2n[nH]c(=O)c3cc(F)cc(c23)N[C@@H]1c1ccc(F)cc1 + Cc1cccc(N(C)C(=O)C2C(O)CCN2c2nc(C)cc(C(F)(F)F)c2C#N)c1", 101),
    ("CC[C@@]1(O)C(=O)OCc2c1cc1n(c2=O)Cc2cc3c(CN(C)C)c(O)ccc3nc2-1 + Cc1cccc(N(C)C(=O)C2C(O)CCN2c2nc(C)cc(C(F)(F)F)c2C#N)c1", 98.4),
    ("COc1cccc(OCCCN)c1-c1cc(Nc2cnc(C#N)cn2)n[nH]1 + Cc1cccc(N(C)C(=O)C2C(O)CCN2c2nc(C)cc(C(F)(F)F)c2C#N)c1", 99.2),
    ("CCc1c2c(nc3ccc(O)cc13)-c1cc3c(c(=O)n1C2)COC(=O)[C@]3(O)CC + COC1C(OC(N)=O)C(O)C(Oc2ccc3c(O)c(NC(=O)c4ccc(O)c(CC=C(C)C)c4)c(=O)oc3c2C)OC1(C)C", 57.3),
    ("COc1cccc(OCCCN)c1-c1cc(Nc2cnc(C#N)cn2)n[nH]1 + COC1C(OC(N)=O)C(O)C(Oc2ccc3c(O)c(NC(=O)c4ccc(O)c(CC=C(C)C)c4)c(=O)oc3c2C)OC1(C)C", 69.5),
    ("C=CCn1c(=O)c2cnc(Nc3ccc(N4CCN(C)CC4)cc3)nc2n1-c1cccc(C(C)(C)O)n1 + Cc1cccc(N(C)C(=O)C2C(O)CCN2c2nc(C)cc(C(F)(F)F)c2C#N)c1", 110),
    ("COc1cccc(OCCCN)c1-c1cc(Nc2cnc(C#N)cn2)n[nH]1 + Nc1ccc(C#CCN(C(=O)Cc2ncc(C(F)(F)F)cc2C(F)(F)F)c2ccc(F)cc2)nn1", 85.2),
    ("C=CCn1c(=O)c2cnc(Nc3ccc(N4CCN(C)CC4)cc3)nc2n1-c1cccc(C(C)(C)O)n1 + Nc1ccc(C#CCN(C(=O)Cc2ncc(C(F)(F)F)cc2C(F)(F)F)c2ccc(F)cc2)nn1", 101),
    ("C=CCn1c(=O)c2cnc(Nc3ccc(N4CCN(C)CC4)cc3)nc2n1-c1cccc(C(C)(C)O)n1 + COC1C(OC(N)=O)C(O)C(Oc2ccc3c(O)c(NC(=O)c4ccc(O)c(CC=C(C)C)c4)c(=O)oc3c2C)OC1(C)C", 95.4),
]

**Query** Tell me reported viability, T/C for CC[C@@]1(O)C(=O)OCc2c1cc1n(c2=O)Cc2cc3c(CN(C)C)c(O)ccc3nc2-1 + COC1C(OC(N)=O)C(O)C(Oc2ccc3c(O)c(NC(=O)c4ccc(O)c(CC=C(C)C)c4)c(=O)oc3c2C)OC1(C)C , tested with 192522-019-R-J2-PDC complex tumor spheroid viability.
**Result** 109

**Query** Tell me reported viability, T/C for CC[C@@]1(O)C(=O)OCc2c1cc1n(c2=O)Cc2cc3c(CN(C)C)c(O)ccc3nc2-1 + Nc1ccc(C#CCN(C(=O)Cc2ncc(C(F)(F)F)cc2C(F)(F)F)c2ccc(F)cc2)nn1 , tested with 192522-019-R-J2-PDC complex tumor spheroid viability.
**Result** 99.3

**Query** Tell me reported viability, T/C for CCc1c2c(nc3ccc(O)cc13)-c1cc3c(c(=O)n1C2)COC(=O)[C@]3(O)CC + Cc1cccc(N(C)C(=O)C2C(O)CCN2c2nc(C)cc(C(F)(F)F)c2C#N)c1 , tested with 192522-019-R-J2-PDC complex tumor spheroid viability.
**Result** 82.6

**Query** Tell me reported viability, T/C for CCc1c2c(nc3ccc(O)cc13)-c1cc3c(c(=O)n1C2)COC(=O)[C@]3(O)CC + Nc1ccc(C#CCN(C(=O)Cc2ncc(C(F)(F)F)cc2C(F)(F)F)c2ccc(F)cc2)nn1 , tested with 192522-019-R-J2-PDC complex tumor spheroid viability.
**Result** 79.8

**Query** Tell me reported viability, T/C for Cn1ncnc1[C@H]1c2n[nH]c(=O)c3cc(F)cc(c23)N[C@@H]1c1ccc(F)cc1 + COC1C(OC(N)=O)C(O)C(Oc2ccc3c(O)c(NC(=O)c4ccc(O)c(CC=C(C)C)c4)c(=O)oc3c2C)OC1(C)C , tested with 192522-019-R-J2-PDC complex tumor spheroid viability.
**Result** 98.1
